molecular target: Neu5Ac(a2-6)Gal(b1-4)GlcNAc(b1-2)[Neu5Ac(a2-6)Gal(b1-4)GlcNAc(b1-4)]Man(a1-3)[GlcNAc(b1-4)][Neu5Ac(a2-6)Gal(b1-4)GlcNAc(b1-2)[Neu5Ac(a2-6)Gal(b1-4)GlcNAc(b1-6)]Man(a1-6)]Man(b1-4)GlcNAc(b1-4)GlcNAc; test: glycan array binding signal (z-score within array); higher = stronger binding; settings: glycan notation: IUPAC condensed, linker removed
Many of the other results were omitted from the sample, so the strongest signals are more common in it than they were.
In this section we review reported glycan array binding signal (z-score) values for a set of binders.
REPORTED METRIC: glycan array binding signal (z-score)

# BINDER, VAL
data = [
    ("AT1G15820(NC) (Arabidopsis thaliana) (protein) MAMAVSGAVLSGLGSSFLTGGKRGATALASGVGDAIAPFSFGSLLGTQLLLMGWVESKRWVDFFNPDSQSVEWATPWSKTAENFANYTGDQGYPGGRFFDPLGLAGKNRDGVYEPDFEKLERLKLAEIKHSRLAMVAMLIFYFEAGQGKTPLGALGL", -0.4),
    ("WGA (Triticum vulgare) (protein) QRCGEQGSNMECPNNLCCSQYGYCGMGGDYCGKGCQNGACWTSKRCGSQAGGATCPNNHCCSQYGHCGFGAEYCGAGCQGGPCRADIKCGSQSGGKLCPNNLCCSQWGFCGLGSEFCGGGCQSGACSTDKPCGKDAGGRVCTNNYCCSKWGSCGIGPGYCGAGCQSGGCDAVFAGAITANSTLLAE", -0.366),
    ("Ovorubin (Pomacea canaliculata), J7I2T6 (protein) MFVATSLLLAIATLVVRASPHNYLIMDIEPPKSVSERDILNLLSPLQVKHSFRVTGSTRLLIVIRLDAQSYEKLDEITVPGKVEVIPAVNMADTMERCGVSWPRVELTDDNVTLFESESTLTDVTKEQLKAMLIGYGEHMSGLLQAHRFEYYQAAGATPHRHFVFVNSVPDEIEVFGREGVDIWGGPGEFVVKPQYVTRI", 3.19),
]
